system: SNB-19 CNS; assay: NCI tumour cell line growth inhibition, 48 h
TGI values for the molecules below.
Measure name: TGI

{"columns": ["Molecule", "Recorded value"],
 "data": [
  ["CCOC(=O)c1cccc(NC(=O)CI)c1", "9.39 µM"],
  ["Nc1nc(-c2ccco2)cc(-c2ccc(CO)o2)n1", "> 100 µM"],
  ["Cc1ccc(-c2csc(NC(=O)N3CCN(c4cc5c(cc4F)c(=O)c(C(=O)O)cn5C4CC4)CC3)n2)cc1", "> 100 µM"],
  ["ClCCCCCc1c2nc(c(CCCCCCl)c3ccc([nH]3)c(CCCCCCl)c3ccc([nH]3)c(CCCCCCl)c3nc1C=C3)C=C2", "> 100 µM"],
  ["CNc1ccc(C(=O)CC(O)CCC(C)C2OC(=O)CC(O)CC(=O)CC(O)CC(O)CC(O)CC(O)CC3(O)CC(O)C(C(=O)NCCN4CCOCC4)C(CC(OC4OC(C)C(O)C(N)C4O)/C=C/C=C/C=C/C=C\\C=C/C=C/C=C/C2C)O3)cc1 (stereo not drawn)", "> 100 µM"],
  ["C=C1CC[C@@H]2[C@](C)(COC(C)=O)[C@H](OC(C)=O)CC[C@@]2(C)[C@@H]1CC(Nc1ccc(S(=O)(=O)Nc2ccc(Cl)nn2)cc1)C1=CCOC1=O (stereo partly drawn)", "3.91 µM"],
  ["O=C(N/N=C/c1ccccc1)c1cccc2nc3ccccc3nc12", "> 100 µM"],
  ["CCOC(=O)NN(C(=O)OCC)c1c(C)cc(C)cc1C", "> 100 µM"]
]}

---

test system: DMS 114 small cell lung; assay: NCI tumour cell line growth inhibition, 48 h
Measure name: TGI

{"columns": ["Molecule", "Measure name", "Recorded value"],
 "data": [
  ["CCCCCCCCC/C=C1\\CCC(CN(C)C)C1=O (stereo unspecified)", "TGI", "4.87 µM"],
  ["CC1=CC2c3cccc4[nH]cc(c34)CC2N(C)C1 (stereo unspecified)", "TGI", "> 100 µM"],
  ["CC(C)(c1ccccc1)c1ccc(Oc2ccc(C#N)c(C#N)c2)cc1", "TGI", "> 100 µM"],
  ["CC(=O)O[C@H]1CCC2[C@@H]3CCC4c5nonc5CC[C@]4(C)C3CC[C@@]21C (stereo partly specified)", "TGI", "> 100 µM"],
  ["CCn1cnnc1-c1nsc2ccccc12", "TGI", "> 100 µM"],
  ["CC(=O)Nc1cccc(N=NN(C)C)c1", "TGI", "> 100 µM"],
  ["CCc1ccccc1NC(=O)/C(N=O)=C(/C)O", "TGI", "> 100 µM"],
  ["CCc1cccc(C)c1NC(=O)C1=C(C)NC(C)=C(C(=O)Nc2c(C)cccc2CC)C1c1ccc2c(c1)OCO2", "TGI", "38.7 µM"],
  ["O=C(NC(=Nc1ccccc1)SCCSC(=Nc1ccccc1)NC(=O)c1cccs1)c1cccs1", "TGI", "> 100 µM"],
  ["O=C(N/C(=C\\c1ccc(/C=C(\\NC(=O)c2ccccc2)c2nc3ccccc3[nH]2)cc1)c1nc2ccccc2[nH]1)c1ccccc1", "TGI", "> 100 µM"],
  ["CC(C)NC(=O)OCc1c2c(n(C)c1COC(=O)NC(C)C)-c1ccccc1CC2", "TGI", "17 µM"]
]}

---

TGI values for the compounds below.
system: SW-620 colon; assay: NCI tumour cell line growth inhibition, 48 h

{"columns": ["Compound", "TGI"],
 "data": [
  ["N#Cc1nc2c(S(=O)(=O)c3ccc(Cl)cc3)c(N)n(CCCN3CCOCC3)c2nc1C#N", "14.1 µM"],
  ["COc1ccc(-c2oc3c(OC)c(OC)cc(O)c3c(=O)c2OC)cc1", "> 100 µM"],
  ["COc1ccc(CC(=O)c2ccc(O)cc2O)cc1", "> 100 µM"],
  ["O=C1CC(=O)NC(=NNS(=O)(=O)c2ccc(Cl)cc2)N1", "> 100 µM"],
  ["COc1ccc2nc3cc(Cl)ccc3c(SCC(=O)Nc3ccccc3-c3ccccc3NC(=O)CSc3c4ccc(Cl)cc4nc4ccc(OC)cc34)c2c1", "> 100 µM"],
  ["O=c1cc(-c2cccnc2)[nH]c2cc3c(cc12)OCO3", "> 100 µM"],
  ["COc1cc(OC)c2[nH]c3c(O)c(-c4c(C)cc5c([nH]c6c(OC)cc(OC)cc65)c4O)c(C)cc3c2c1", "20.3 µM"],
  ["CC(C)N(C(C)C)S(=O)(=O)C[C@]12CC[C@H](CC13OCC(CS(=O)(=O)c1ccccc1)O3)C2(C)C (some centres undefined)", "> 100 µM"],
  ["CCOC(=O)C1CCCCN1C(=O)c1ccc(Nc2cnc3cc(C(F)(F)F)ccc3n2)cc1 (centres undefined)", "38.5 µM"]
]}

---

system: SN12C renal; assay: NCI tumour cell line growth inhibition, 48 h; in the data active means GI50 below about 0.43 µM; inactive means the rest
Outcome codes: 1 (yes) (active), 0 (no) (inactive)

{"columns": ["Mol", "Measured target", "Answer label"],
 "data": [
  ["Nc1c(C(=O)c2cccc(-c3cccnc3)c2)cnn1-c1ccc(F)cc1F", "SN12C renal", "0 (no)"],
  ["CCSc1nc(SCC)c2c(-c3ccc(OC)c(OC)c3)c(C#N)c(SCC)nc2n1", "SN12C renal", "0 (no)"],
  ["CCOC(=O)c1cc2c(n1Cc1cc(OC)c(OC)c(OC)c1)-c1oncc1CCC2", "SN12C renal", "0 (no)"],
  ["Cc1ccc(-c2csc(NC(=O)N3CCN(c4cc5c(cc4F)c(=O)c(C(=O)O)cn5C4CC4)CC3)n2)cc1", "SN12C renal", "1 (yes)"],
  ["COc1ccc(CC(=O)c2ccc(O)cc2O)cc1", "SN12C renal", "0 (no)"]
]}

---

TGI values for the compounds below.
system: OVCAR-5 ovarian; test: NCI tumour cell line growth inhibition, 48 h
Measure name: TGI (µM)

{"columns": ["Compound", "Unit tag", "Value operator", "Recorded value"],
 "data": [
  ["COC(=O)CCC(NC(=O)OC(C)(C)C)C(=O)NC(Cc1ccc(NC(=O)CCCC(C)=O)cc1)C(=O)NC(CCC(=O)OC)C(=O)OC (stereo not given)", "µM", ">", 100],
  ["c1ccc2c(c1)OC(N1CCCC1)c1cnc(N3CCOCC3)nc1-2 (stereo not given)", "µM", "=", 79.1],
  ["COc1ccc(/C=C(\\C(=O)NCc2cccnc2)S(=O)(=O)c2ccccc2)cc1OC", "µM", "=", 10.3],
  ["Cc1n(Cc2ccccc2)nc2sc(N)n[n+]12", "µM", ">", 100],
  ["CC(=O)O[C@H]1CCC2[C@@H]3CCC4c5nonc5CC[C@]4(C)C3CC[C@@]21C (stereo not given in full)", "µM", ">", 100]
]}

---

tested on: SF-295 CNS; experiment: NCI tumour cell line growth inhibition, 48 h
Measure name: GI50

{"columns": ["Compound", "Measured target", "Measure name", "Recorded value"],
 "data": [
  ["Nc1ccccc1C#C/C=C\\C#Cc1cccc(O)c1", "SF-295 CNS", "GI50", "2.19 µM"],
  ["CC(=O)[CH-]C(=O)c1ccccc1.CC(=O)[CH-]C(=O)c1ccccc1.CC(=O)[CH-]C(=O)c1ccccc1.[In+3]", "SF-295 CNS", "GI50", "24.2 µM"],
  ["CN(C)CC1CCC2=C(C1=O)C(c1ccc(Cl)c(Cl)c1)C1=C(CCC(CN(C)C)C1=O)O2 (stereo not drawn)", "SF-295 CNS", "GI50", "16.9 µM"],
  ["COc1ccc(/C=C(\\C(=O)NCc2cccnc2)S(=O)(=O)c2ccccc2)cc1OC", "SF-295 CNS", "GI50", "2.95 µM"],
  ["COc1cc(OC)c2[nH]c3c(O)c(-c4c(C)cc5c([nH]c6c(OC)cc(OC)cc65)c4O)c(C)cc3c2c1", "SF-295 CNS", "GI50", "10.2 µM"],
  ["COc1ccccc1CNCCCN1C(=O)c2ccc3c4c(ccc(c24)C1=O)C(=O)N(CCCN)C3=O", "SF-295 CNS", "GI50", "1.31 µM"],
  ["Nc1ncnc2c1c(-c1ccc(Oc3ccccc3)cc1)nn2C[C@@H]1SSC[C@H]1O", "SF-295 CNS", "GI50", "2.7 µM"],
  ["CCSc1nc(SCC)c2c(-c3ccc(OC)c(OC)c3)c(C#N)c(SCC)nc2n1", "SF-295 CNS", "GI50", "12.9 µM"],
  ["CCN1C(=O)N(CC)C2C1NN=c1s/c(=C\\c3ccccn3)c(=O)n12 (stereo not drawn)", "SF-295 CNS", "GI50", "2.72 µM"],
  ["Cc1[nH]c2ccc(F)cc2c1-c1nc2c3cccnc3c3ncccc3c2[nH]1", "SF-295 CNS", "GI50", "0.428 µM"],
  ["COc1ccc(CC(=O)c2ccc(O)cc2O)cc1", "SF-295 CNS", "GI50", "46.2 µM"],
  ["CCC[CH2][Sn]1([CH2]CCC)[O]C2C(CO)OC(n3ccc(N)nc3=O)C2[O]1 (stereo not drawn)", "SF-295 CNS", "GI50", "1.93 µM"],
  ["CC(C)CCNCC(O)Cn1c2ccccc2c2ccccc21 (stereo not drawn)", "SF-295 CNS", "GI50", "19.4 µM"],
  ["O=c1c(O)c(-c2ccc(O)c(O)c2)oc2cc(O)cc(O)c12", "SF-295 CNS", "GI50", "23.1 µM"],
  ["COc1cc(/C=C/C(=O)c2ccc(F)cc2)ccc1OCCCN1CCN(CC(=O)Nc2ccc(Cl)cc2C(=O)c2ccccc2Cl)CC1", "SF-295 CNS", "GI50", "5.57 µM"],
  ["Cc1nn(-c2ccc([N+](=O)[O-])cc2)c2ncnc(N/N=C/c3ccccc3O)c12", "SF-295 CNS", "GI50", "1.14 µM"],
  ["N#CSCc1ccc(Cl)c(CSC#N)c1", "SF-295 CNS", "GI50", "3.15 µM"],
  ["CC(C)(C)c1[nH]nc2c1C(c1cc3ccccc3[nH]c1=O)Nc1cc(C(=O)OCc3ccccc3)ccc1N2 (stereo not drawn)", "SF-295 CNS", "GI50", "3.17 µM"],
  ["O=C1C(SCCO)=C(SCCO)C(=O)N1c1ccc(-c2ccccc2)cc1", "SF-295 CNS", "GI50", "20.7 µM"],
  ["O=C1c2ccc3c4c(ccc(c24)C(=O)N1CCCNCc1ccccc1Cl)C(=O)N(CCCNCc1ccccc1Cl)C3=O", "SF-295 CNS", "GI50", "0.494 µM"],
  ["Cc1cnc2[nH]c(-c3ccc4ccccc4c3)cc(=O)c2c1", "SF-295 CNS", "GI50", "0.549 µM"],
  ["Cc1ccc(-c2csc(NC(=O)N3CCN(c4cc5c(cc4F)c(=O)c(C(=O)O)cn5C4CC4)CC3)n2)cc1", "SF-295 CNS", "GI50", "0.762 µM"],
  ["COC(=O)c1cc2ccccc2c2c3c(ccc12)OCO3", "SF-295 CNS", "GI50", "99.8 µM"]
]}
